compounds and their reported IC50
target: Tyrosine-protein phosphatase non-receptor type 5 (Homo sapiens, UniProt P54829); test: STEP phosphatase inhibitor potency, dose response, orthogonal assay for STEP inhibitor project, biochemical, colorimetric absorbance (AID 624207)
Sequence (P54829 whole entry): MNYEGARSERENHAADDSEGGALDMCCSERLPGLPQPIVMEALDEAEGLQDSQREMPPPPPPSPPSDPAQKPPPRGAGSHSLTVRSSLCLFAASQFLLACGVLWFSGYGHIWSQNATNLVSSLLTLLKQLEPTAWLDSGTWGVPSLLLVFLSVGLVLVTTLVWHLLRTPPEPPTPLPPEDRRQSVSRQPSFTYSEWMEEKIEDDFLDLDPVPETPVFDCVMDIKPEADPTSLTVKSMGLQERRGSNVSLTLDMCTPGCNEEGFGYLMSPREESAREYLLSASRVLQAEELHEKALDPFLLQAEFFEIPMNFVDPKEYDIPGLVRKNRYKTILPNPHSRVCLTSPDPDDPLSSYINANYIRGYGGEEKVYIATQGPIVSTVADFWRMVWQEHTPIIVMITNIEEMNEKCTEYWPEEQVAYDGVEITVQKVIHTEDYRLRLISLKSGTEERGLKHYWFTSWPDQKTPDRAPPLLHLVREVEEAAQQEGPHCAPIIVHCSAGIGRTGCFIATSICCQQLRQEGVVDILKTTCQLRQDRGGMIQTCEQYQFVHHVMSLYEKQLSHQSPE

Would you please look over these solved cases?
1. CC(=O)N1CCC(N(CCN2CCOCC2)C(=S)Nc2ccc(C)cc2)CC1; > 80 µM
2. NN=C1C(Cl)=C(Cl)C(Cl)=C1Cl; > 80 µM

Incoming: # lookup: Tyrosine-protein phosphatase non-receptor type 5 (Homo sapiens, UniProt P54829) IC50, key = O=C1C(=O)N(CCCO)C(c2ccc(Br)cc2)C1C(=O)c1ccc(Br)cc1 (stereo not given)
Outgoing: 41.5 µM

Incoming: # lookup: Tyrosine-protein phosphatase non-receptor type 5 (Homo sapiens, UniProt P54829) IC50, key = O=S(=O)(Nc1ccccc1)c1cccc2nsnc12
Outgoing: > 80 µM

Incoming: # lookup: Tyrosine-protein phosphatase non-receptor type 5 (Homo sapiens, UniProt P54829) IC50, key = CCc1ccc(OCC(=O)Nc2ccc(-c3nc4ccccc4o3)c(O)c2)cc1
Outgoing: > 80 µM

Incoming: # lookup: Tyrosine-protein phosphatase non-receptor type 5 (Homo sapiens, UniProt P54829) IC50, key = O=C(CSc1nc(-c2ccc(F)cc2)nc2c1Cc1ccccc1O2)Nc1cccc(C(=O)O)c1
Outgoing: 1.55 µM

Incoming: # lookup: Tyrosine-protein phosphatase non-receptor type 5 (Homo sapiens, UniProt P54829) IC50, key = NC(=NOC(=O)c1cccc2ccccc12)c1cccc([N+](=O)[O-])c1
Outgoing: > 80 µM

Incoming: # lookup: Tyrosine-protein phosphatase non-receptor type 5 (Homo sapiens, UniProt P54829) IC50, key = O=C(O)c1ccc2c(c1)C(=O)N(c1cccc(-c3nc4ccccc4s3)c1)C2=O
Outgoing: > 80 µM

Incoming: # lookup: Tyrosine-protein phosphatase non-receptor type 5 (Homo sapiens, UniProt P54829) IC50, key = O=C(N/N=C/C1C=CC=CC1=O)c1cccc([N+](=O)[O-])c1 (stereo not given)
Outgoing: 15.8 µM

Incoming: # lookup: Tyrosine-protein phosphatase non-receptor type 5 (Homo sapiens, UniProt P54829) IC50, key = Nc1ccc2c(O)cc(S(=O)(=O)O)cc2c1
Outgoing: > 80 µM
